tested on: Fibroblast; assay: Multiplex assay against human fibroblast; type: toxicity, cell-based; details: 48 h, 1 µM, compound concentration 1 uM, replicate 2
MEASURED ATTRIBUTE: Population Apoptotic (%)
Write the value in % as a bare number.

* C[C@H](NC(=O)CNC(=O)c1cccc(Cl)c1)c1ccccc1 | 40

What value of measured Population Apoptotic (%) is listed for CN1C[C@H](C(=O)N[C@]2(C)O[C@@]3(O)[C@@H]4CCCN4C(=O)[C@H](Cc4ccccc4)N3C2=O)C[C@@H]2c3cccc4[nH]cc(c34)C[C@H]21.CS(=O)(=O)O [DIHYDROERGOTAMINE MESYLATE] ?
53

What value of measured Population Apoptotic (%) is listed for O=c1ccc2ccc(OCCCCN3CCN(c4cccc5sccc45)CC3)cc2[nH]1 [BREXPIPRAZOLE] ?
60

What value of measured Population Apoptotic (%) is listed for Cc1ccc(OCC(O)C(C)NC(C)C)c2c1CCC2.Cl (configuration not stated) ?
34

What value of measured Population Apoptotic (%) is listed for C[C@@H]1CC(=O)Nc2cccc(-c3ccc4c(c3)c(-c3cnn(C)c3)nn4C)c2N1 ?
30

What value of measured Population Apoptotic (%) is listed for COC(c1ccccc1)(c1ccccc1)[C@H](Oc1nc(C)cc(C)n1)C(=O)O [AMBRISENTAN] ?
61

====

Property: Population Membrane Permeable-Phenotype (%); scope: individual compounds
test system: Fibroblast; assay: Multiplex assay against human fibroblast; assay type: toxicity, cell-based; conditions: 12 h, 10 µM, compound concentration 10 uM, replicate 1
Write the value in % as a bare number.

Completed entries (count: 2):
• CN(C)C(=O)Cn1cc(-c2ccc(-c3nnc4ccccn34)cc2)cn1 = 0
• CN1CCC(C(=O)c2cccc(NC(=O)c3c(F)cc(F)cc3F)n2)CC1 = 1

What value of measured Population Membrane Permeable-Phenotype (%) is listed for COc1c(Nc2ccc(S(C)(=O)=O)nc2C)ncnc1OC1CCN(C(=O)OC(C)C)CC1 ?
0

What value of measured Population Membrane Permeable-Phenotype (%) is listed for COc1cc2nc(N3CCN(C(=O)COc4c(OC)cccc4C(C)C)CC3)nc(N)c2cc1OC.Cl.Cl ?
0

What value of measured Population Membrane Permeable-Phenotype (%) is listed for COc1cc(C(=O)N2CC[C@@H](O)[C@@H](N)C2)cc2nc(-c3cc4ccccc4n3CC3CC3)n(C)c12.Cl ?
0

====

tested on: HEK-293T; assay: Multiplex assay against HEK293T; format: toxicity, cell-based; settings: human, 12 h, 1 µM, compound concentration 1 uM, replicate 1
MEASURED ATTRIBUTE: Population Normal (%)
Respond with a number, then the unit of measure.

Completed entries (count: 3):
- CN(C)C/C=C/C(=O)Nc1ccc(C(=O)N2CCCC(Nc3ncc(Cl)c(-c4c[nH]c5ccccc45)n3)C2)cc1 (centres undefined): 69%
- COc1ccc2c(c1OCc1ccccc1)C[C@@H](C(=O)O)N(C(=O)C(c1ccccc1)c1ccccc1)C2: 92%
- CCCCCCNC(=O)Nc1ccc(S(=O)(=O)Nc2ccc(CCNC[C@H](O)COc3ccc(O)cc3)cc2)cc1: 92%

Now examine the next entry.
What value of measured Population Normal (%) is listed for Cc1cc(NC(=O)NCCN2CCC(O)(Cc3ccccc3)CC2)c2ccccc2n1 ?
93%

====

system: Fibroblast; assay: Multiplex assay against human fibroblast; assay type: toxicity, cell-based; conditions: 24 h, 10 µM, compound concentration 10 uM, replicate 2
MEASURED ATTRIBUTE: Population Mitotic Cells (%)
Write the value in % as a bare number.

Completed entries (count: 3):
- CCc1nn2c(C)cc(C)nc2c1Cc1ccc(-c2nnc(C3CCNCC3)o2)cc1: 44
- Cn1cc(C(=O)OCC2CCN(CCNS(C)(=O)=O)CC2)c2ccccc21: 58
- CC(F)(F)CN1CCOc2c(nn(-c3ccccc3Cl)c2-c2ccc(Cl)cc2)C1=O: 64

Now examine the next entry.
What value of measured Population Mitotic Cells (%) is listed for Nc1nc(CC(=O)Nc2ccc(CCNC[C@H](O)c3ccccc3)cc2)cs1 [MIRABEGRON] ?
44

====

Property: Population Hoechst High Intensity Objects (%); scope: individual compounds
system: HEK-293T; assay: Multiplex assay against HEK293T; format: toxicity, cell-based; conditions: human, 48 h, 1 µM, compound concentration 1 uM, replicate 2
Write the value in % as a bare number.

Completed entries (count: 2):
• CCn1c(-c2nc3cc(C(=O)N4CCCC(N)C4)ccc3n2C)cc2ccccc21.Cl (stereo not given) = 4
• Nc1nc(CC(=O)Nc2ccc(CCNC[C@H](O)c3ccccc3)cc2)cs1 = 0

What value of measured Population Hoechst High Intensity Objects (%) is listed for COc1cc2nc(N3CCN(C(=O)COc4c(OC)cccc4C(C)C)CC3)nc(N)c2cc1OC.Cl.Cl ?
3

What value of measured Population Hoechst High Intensity Objects (%) is listed for CC(C)(C)c1ccc(CSc2cnn(C(C)(C)C)c(=O)c2Cl)cc1 ?
4

What value of measured Population Hoechst High Intensity Objects (%) is listed for Cc1c(Cc2ccc3ccccc3n2)c2cc(F)ccc2n1CC(=O)O ?
3

What value of measured Population Hoechst High Intensity Objects (%) is listed for CCC(=O)OCC(=O)[C@@]1(OC(=O)CC)[C@@H](C)C[C@H]2[C@@H]3CCC4=CC(=O)C=C[C@]4(C)[C@@]3(Cl)[C@@H](O)C[C@@]21C [BECLOMETHASONE DIPROPIONATE] ?
3

What value of measured Population Hoechst High Intensity Objects (%) is listed for COc1c(Nc2ccc(S(C)(=O)=O)nc2C)ncnc1OC1CCN(C(=O)OC(C)C)CC1 ?
5

====

tested on: HEK-293T; assay: Multiplex assay against HEK293T; type: toxicity, cell-based; settings: human, 48 h, 1 µM, compound concentration 1 uM, replicate 2
Class 1: Population Healthy Nuclei (%) at least 80%. Class 0: Population Healthy Nuclei (%) below 80%.

* CN1CCN(c2ccc(Nc3c4ccccc4nc4ccccc34)cc2)CC1.Cl.Cl.O | 1
* CCc1nn2c(C)cc(C)nc2c1Cc1ccc(-c2nnc(C3CCNCC3)o2)cc1 | 1
* CN1CCC(C(=O)c2cccc(NC(=O)c3c(F)cc(F)cc3F)n2)CC1 | 1

From here, focus on the item given below.
Item COc1c(Nc2ccc(S(C)(=O)=O)nc2C)ncnc1OC1CCN(C(=O)OC(C)C)CC1 with Population Healthy Nuclei (%) of 80% or above?
0

====

tested on: HEK-293T; assay: Multiplex assay against HEK293T; format: toxicity, cell-based; conditions: human, 12 h, 1 µM, compound concentration 1 uM, replicate 1
MEASURED ATTRIBUTE: Total Cell Count
Kindly provide the number alone.

• C=CCN1C[C@H](C(=O)N(CCCN(C)C)C(=O)NCC)C[C@@H]2c3cccc4[nH]cc(c34)C[C@H]21 = 370
• COc1cc(OC2CCN(C(C)=O)CC2)ccc1C(=O)N1CCC(N2C(=O)OCc3ccccc32)CC1 = 477

What value of measured Total Cell Count is listed for COC(c1ccccc1)(c1ccccc1)[C@H](Oc1nc(C)cc(C)n1)C(=O)O ?
249

What value of measured Total Cell Count is listed for CCC(=O)OCC(=O)[C@@]1(OC(=O)CC)[C@@H](C)C[C@H]2[C@@H]3CCC4=CC(=O)C=C[C@]4(C)[C@@]3(Cl)[C@@H](O)C[C@@]21C [BECLOMETHASONE DIPROPIONATE] ?
388

What value of measured Total Cell Count is listed for Cc1cc(O)c(-c2ccc([C@@H](C)CN(C)C)cc2)c2c1[nH]c(=O)c1sccc12 ?
209

What value of measured Total Cell Count is listed for CC(C)C[C@H](CO)Nc1nc(S[C@@H](C)c2ccccc2)nc2nc(N)sc12 ?
326

====

tested on: Fibroblast; assay: Multiplex assay against human fibroblast; type: toxicity, cell-based; details: 12 h, 1 µM, compound concentration 1 uM, replicate 2
MEASURED ATTRIBUTE: Population Normal (%)
Respond with a number, then the unit of measure.

Completed entries (count: 3):
• CN(C)C/C=C/C(=O)Nc1ccc(C(=O)N2CCCC(Nc3ncc(Cl)c(-c4c[nH]c5ccccc45)n3)C2)cc1 (centres undefined) = 93%
• CCn1c(-c2nc3cc(C(=O)N4CCCC(N)C4)ccc3n2C)cc2ccccc21.Cl (centres undefined) = 94%
• COc1cc(C(=O)N2CC[C@@H](O)[C@@H](N)C2)cc2nc(-c3cc4ccccc4n3CC3CC3)n(C)c12.Cl = 96%

Now examine the next entry.
What value of measured Population Normal (%) is listed for COc1c(Nc2ccc(S(C)(=O)=O)nc2C)ncnc1OC1CCN(C(=O)OC(C)C)CC1 [ADP-597] ?
95%

====

tested on: U2OS; assay: Multiplex assay against U2OS; assay type: toxicity, cell-based; settings: human, 24 h, 10 µM, compound concentration 10 uM, replicate 2
Non-standard residues stand in square brackets, D forms with d. Residues, ends and D or L forms follow the SMILES beside them.
MEASURED ATTRIBUTE: Population Pyknosed Nuclei (%)
Respond with a number, then the unit of measure.

Completed entries (count: 2):
- COC(c1ccccc1)(c1ccccc1)[C@H](Oc1nc(C)cc(C)n1)C(=O)O: 8%
- CC(C)C[C@@H]1NC(=O)[C@@H](C(C)C)NC(=O)[C@@H]2CCCN2C(=O)[C@@H](CC(=O)O)NC(=O)[C@@H](Cc2c[nH]c3ccccc23)NC1=O [BQ-123] (cyclo(L[dW][dD]P[dV])): 1%

What value of measured Population Pyknosed Nuclei (%) is listed for CCCCCCNC(=O)Nc1ccc(S(=O)(=O)Nc2ccc(CCNC[C@H](O)COc3ccc(O)cc3)cc2)cc1 ?
6%

What value of measured Population Pyknosed Nuclei (%) is listed for O=c1ccc2ccc(OCCCCN3CCN(c4cccc5sccc45)CC3)cc2[nH]1 ?
54%

What value of measured Population Pyknosed Nuclei (%) is listed for COc1cc(C(=O)N2CC[C@@H](O)[C@@H](N)C2)cc2nc(-c3cc4ccccc4n3CC3CC3)n(C)c12.Cl ?
25%

What value of measured Population Pyknosed Nuclei (%) is listed for Cc1cc(-c2ccc3c(c2)CC[C@H]3N2CC3(CCN(C(=O)Cc4cn5cc(C)sc5n4)CC3)C2)ncn1 ?
12%

What value of measured Population Pyknosed Nuclei (%) is listed for C[C@H](NC(=O)CNC(=O)c1cccc(Cl)c1)c1ccccc1 ?
3%

What value of measured Population Pyknosed Nuclei (%) is listed for CN(C)C(=O)Cn1cc(-c2ccc(-c3nnc4ccccn34)cc2)cn1 ?
4%
